Biological target: Replicase polyprotein 1ab (Severe acute respiratory syndrome coronavirus, UniProt P0C6X7)
assay_endpoint: pKi
Reminder that pKi is minus the log10 of a molar concentration.

Ask | Retrieve pKi on Replicase polyprotein 1ab (Severe acute respiratory syndrome coronavirus, UniProt P0C6X7); query CC(OC(C)(C)C)[C@H](NC(=O)OCc1ccccc1)C(=O)N[C@@H](CC1CCCCC1)C(=O)N[C@H](C=O)CC1CCNC1=O (stereo partly specified) [TG-0205221]
Reply | 7.28

---

Target: Replicase polyprotein 1ab (Severe acute respiratory syndrome coronavirus, UniProt P0C6X7)
Experiment: Literature assay
Each entry below carries its recorded pIC50.
Reminder that pIC50 is minus the log10 of a molar concentration.

Ask | Given the compound CC(C)C[C@H](NC(=O)[C@@H](NC(=O)OCc1ccccc1)C(C)C)C(=O)N[C@@H](C[C@@H]1CCNC1=O)C(=O)C(=O)N(C)C , write its reported pIC50.
Reply | 8.15

Ask | Given the compound CC(C)C[C@H](NC(=O)[C@@H](NC(=O)OCc1ccccc1)C(C)C)C(=O)N[C@@H](C[C@@H]1CCNC1=O)C(=O)c1nc2ccccc2s1 , write its reported pIC50.
Reply | 5.77

Ask | Given the compound CC(C)C[C@H](NC(=O)OCc1ccccc1)C(=O)N[C@@H](C[C@@H]1CCNC1=O)C(=O)c1nc2ccccc2s1 , write its reported pIC50.
Reply | 3.68
